The reported measurements were obtained from ChEMBL document CHEMBL1138225.

The entries below are paired with their reported pKi.
- Target Or System: Neuronal acetylcholine receptor; alpha4/beta2 (Rattus norvegicus, UniProt P09483+P12390)
- Sequence (P09483 whole entry): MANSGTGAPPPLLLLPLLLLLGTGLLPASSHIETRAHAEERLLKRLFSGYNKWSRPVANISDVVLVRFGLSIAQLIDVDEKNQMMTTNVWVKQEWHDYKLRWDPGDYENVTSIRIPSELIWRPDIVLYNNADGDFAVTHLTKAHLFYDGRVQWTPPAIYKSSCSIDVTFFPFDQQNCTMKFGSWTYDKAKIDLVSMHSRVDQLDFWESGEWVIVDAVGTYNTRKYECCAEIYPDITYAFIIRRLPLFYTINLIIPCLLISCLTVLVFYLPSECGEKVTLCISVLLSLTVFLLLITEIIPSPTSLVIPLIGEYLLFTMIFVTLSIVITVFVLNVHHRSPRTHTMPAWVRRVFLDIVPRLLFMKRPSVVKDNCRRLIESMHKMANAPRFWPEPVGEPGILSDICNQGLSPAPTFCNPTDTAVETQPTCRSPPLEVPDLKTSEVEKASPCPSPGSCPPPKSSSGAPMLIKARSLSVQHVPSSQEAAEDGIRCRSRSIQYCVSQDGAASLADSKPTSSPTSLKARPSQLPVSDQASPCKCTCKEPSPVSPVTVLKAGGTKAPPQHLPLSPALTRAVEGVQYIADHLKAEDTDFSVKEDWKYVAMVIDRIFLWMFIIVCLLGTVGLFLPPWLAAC
- Sequence (P12390 whole entry): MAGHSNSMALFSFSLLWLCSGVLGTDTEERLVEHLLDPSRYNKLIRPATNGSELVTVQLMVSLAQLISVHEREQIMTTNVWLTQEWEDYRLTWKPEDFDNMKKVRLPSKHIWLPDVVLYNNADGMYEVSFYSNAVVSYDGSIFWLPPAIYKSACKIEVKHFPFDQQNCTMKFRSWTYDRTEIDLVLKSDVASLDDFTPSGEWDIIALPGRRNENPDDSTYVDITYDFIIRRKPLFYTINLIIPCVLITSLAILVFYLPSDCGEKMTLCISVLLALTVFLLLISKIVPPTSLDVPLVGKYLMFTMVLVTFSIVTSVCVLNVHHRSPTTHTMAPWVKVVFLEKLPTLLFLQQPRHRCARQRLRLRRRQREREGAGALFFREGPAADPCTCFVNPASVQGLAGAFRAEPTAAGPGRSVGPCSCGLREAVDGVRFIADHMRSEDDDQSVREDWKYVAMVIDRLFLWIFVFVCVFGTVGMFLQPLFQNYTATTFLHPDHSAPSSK
- Method Notes: Displacement of [3H]cytisine from alpha-4-beta-2 ACHR in rat brain homogenate
Note: pKi values are expressed as the negative base-10 logarithm of concentration in M.

Some entries whose results are on file:
Molecule | pKi
CCOc1cncc(N2CC[C@H]3CN[C@H]3C2)c1 | 10.28
N#Cc1cncc(N2C[C@H]3CCNC[C@H]32)c1 | 8.59

For the next question, use this molecule.
The value of pKi recorded for Brc1cncc(N2CC[C@@H]3CN[C@@H]3C2)c1 (single isomer, unassigned) when tested on Neuronal acetylcholine receptor; alpha4/beta2 (Rattus norvegicus, UniProt P09483+P12390) reads 10.28

* * *

- Target Or System: Neuronal acetylcholine receptor; alpha4/beta2 (Homo sapiens, UniProt P17787+P43681)
- Method Notes: Maximal agonist activity on human alpha-4-beta-2 ACHR expressed in HEK293 cells assessed as change in intracellular calcium concentration by FLIPR relative to nicotine
- Type: functional, cell-based
Activity under 80% gets Criterion met, anything at or over 80% gets Criterion not met.

Examples from the recorded data:
Cpd Smiles | Category
N#Cc1cncc(N2C[C@@H]3CCNC[C@@H]32)c1 | Criterion met
N#Cc1cncc(N2C[C@H]3CCNC[C@H]32)c1 | Criterion not met

[in] Just wondering, is Activity of N#Cc1cc(N2C[C@@H]3CCNC[C@@H]32)cnc1Br below 80%?
[out] Criterion not met

[in] hey, is Activity for N#Cc1cc(N2C[C@H]3CCNC[C@H]32)cnc1Br lower than 80% or not?
[out] Criterion not met

[in] A record lists COc1cncc(N2CC[C@@H]3CN[C@@H]3C2)c1 . Is its Activity below 80%?
[out] Criterion met

[in] # strict comparison: is reported Activity < 80%? input = N#Cc1cncc(N2CC[C@H]3CN[C@H]3C2)c1
[out] Criterion not met

[in] Given COc1cncc(N2C[C@@H]3CCNC[C@@H]32)c1 , is recorded Activity strictly lower than 80%?
[out] Criterion met

[in] Given the entry Clc1ccc(N2CC[C@H]3CN[C@H]3C2)nn1 , would its reported Activity be below 80%?
[out] Criterion not met

[in] For Clc1ccc(N2C[C@@H]3CCNC[C@@H]32)cn1 , is the recorded Activity below the cut-off of 80%?
[out] Criterion not met

[in] Take the compound Clc1cc(N2C[C@@H]3CCNC[C@@H]32)cnc1Cl and say whether its Activity is less than 80%.
[out] Criterion met

[in] Take the compound NC(=O)c1cc(N2C[C@@H]3CCNC[C@@H]32)cnc1Br and say whether its Activity is less than 80%.
[out] Criterion met

[in] I wonder whether Cc1cc(N2CC[C@H]3CN[C@H]3C2)cnc1Cl has Activity below 80%. Can you tell?
[out] Criterion not met

* * *

- Target Or System: Neuronal acetylcholine receptor; alpha4/beta2 (Homo sapiens, UniProt P17787+P43681)
- Method Notes: Maximal agonist activity on human alpha-4-beta-2 ACHR expressed in HEK293 cells assessed as change in intracellular calcium concentration by FLIPR relative to nicotine
- Assay type: functional, cell-based
Assay Readout: Activity (%)
Provide only the numeric value, understood in %.

Below, each entry is followed by its recorded Activity result.
Cpd Smiles | Target Or System | Assay Readout | Unit Of Measure | Val
c1cncc(N2CC[C@@H]3CN[C@@H]3C2)c1 | Neuronal acetylcholine receptor; alpha4/beta2 (Homo sapiens, UniProt P17787+P43681) | Activity | % | 112
N#Cc1cc(N2CC[C@H]3CN[C@H]3C2)cnc1Br | Neuronal acetylcholine receptor; alpha4/beta2 (Homo sapiens, UniProt P17787+P43681) | Activity | % | 215
c1ncc(N2CC[C@@H]3CN[C@@H]3C2)cn1 | Neuronal acetylcholine receptor; alpha4/beta2 (Homo sapiens, UniProt P17787+P43681) | Activity | % | 79
Brc1cc(N2CC[C@H]3CN[C@H]3C2)cnc1Br | Neuronal acetylcholine receptor; alpha4/beta2 (Homo sapiens, UniProt P17787+P43681) | Activity | % | 209
Cc1cc(N2C[C@@H]3CCNC[C@@H]32)cnc1Cl | Neuronal acetylcholine receptor; alpha4/beta2 (Homo sapiens, UniProt P17787+P43681) | Activity | % | 103

Form: compound = Clc1ccc(N2CC[C@@H]3CN[C@@H]3C2)cn1 ; Activity = 130
